tested on: Rattus norvegicus; assay: In vivo neuroprotective activity to block nitrogen (N2) lethality in male Dawley rats by ip administration at a dose of 40 mg/kg; format: functional; conditions: route intraperitoneal

Compound | Assayed system | Protection [%]
Fc1ccc(CCCCN2CCN(c3ncc(F)cn3)CC2)cc1 | Rattus norvegicus | 75
OC(CCCN1CCN(c2ncc(F)cn2)CC1)(c1ccc(F)cc1)C1CCCCC1 (stereo not given) | Rattus norvegicus | 75
O=C(NC(CCCN1CCN(c2ncc(F)cn2)CC1)c1ccc(F)cc1)c1ccc(F)cc1 (stereo not given) | Rattus norvegicus | 88
OC(CCCN1CCN(c2ncc(F)cn2)CC1)C1CCCCC1 (stereo not given) | Rattus norvegicus | 100
NC(CCCN1CCN(c2ncc(F)cn2)CC1)c1ccc(F)c2ccccc12 (stereo not given) | Rattus norvegicus | 38
CC(=O)NC(CCCN1CCN(c2ncc(F)cn2)CC1)c1ccc(F)cc1 (stereo not given) | Rattus norvegicus | 13
O=S(=O)(CCCN1CCN(c2ncc(F)cn2)CC1)c1ccc(F)cc1 | Rattus norvegicus | 25
O=S(=O)(NC(CCCN1CCN(c2ncc(F)cn2)CC1)c1ccc(F)c2ccccc12)c1ccc(F)cc1 (stereo not given) | Rattus norvegicus | 38
Fc1ccc(SCCCN2CCN(c3ncc(F)cn3)CC2)cc1 | Rattus norvegicus | 13
Fc1ccc(OCCCN2CCN(c3ncc(F)cn3)CC2)cc1 | Rattus norvegicus | 25

###

target: 5-hydroxytryptamine receptor 2A (Rattus norvegicus, UniProt P14842); assay: In vitro binding affinity towards serotonin 5-HT2A receptor by the displacement of [3H]spiperone from rat cortical membranes
Sequence (P14842 whole entry): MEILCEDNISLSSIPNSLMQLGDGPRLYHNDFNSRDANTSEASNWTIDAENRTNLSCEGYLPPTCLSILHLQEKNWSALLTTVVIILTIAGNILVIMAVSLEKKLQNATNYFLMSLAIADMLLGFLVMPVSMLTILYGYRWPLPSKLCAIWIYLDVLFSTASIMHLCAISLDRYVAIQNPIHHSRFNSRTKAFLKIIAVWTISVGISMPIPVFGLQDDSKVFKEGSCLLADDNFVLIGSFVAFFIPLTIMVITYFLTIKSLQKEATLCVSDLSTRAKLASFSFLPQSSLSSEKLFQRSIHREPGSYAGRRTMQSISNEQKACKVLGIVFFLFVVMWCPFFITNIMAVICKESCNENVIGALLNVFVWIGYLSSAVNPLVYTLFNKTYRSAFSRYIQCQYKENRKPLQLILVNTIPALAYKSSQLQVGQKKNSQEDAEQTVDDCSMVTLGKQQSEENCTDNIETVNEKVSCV
Measurement type: IC50

Compound | Assayed system | Measurement type | Result
OC(CCCN1CCN(c2ncc(F)cn2)CC1)(c1ccc(F)cc1)C1CCCCC1 (stereo unspecified) | 5-hydroxytryptamine receptor 2A (Rattus norvegicus, UniProt P14842) | IC50 | 336 nM
OC(CCCN1CCN(c2ncc(F)cn2)CC1)c1ccc(F)cc1 (stereo unspecified) | 5-hydroxytryptamine receptor 2A (Rattus norvegicus, UniProt P14842) | IC50 | 1700 nM
O=S(=O)(NC(CCCN1CCN(c2ncc(F)cn2)CC1)C1CCCCC1)c1ccc(F)cc1 (stereo unspecified) | 5-hydroxytryptamine receptor 2A (Rattus norvegicus, UniProt P14842) | IC50 | 760 nM
OC(CCCN1CCN(c2ncc(F)cn2)CC1)c1ccc(F)c2ccccc12 (stereo unspecified) | 5-hydroxytryptamine receptor 2A (Rattus norvegicus, UniProt P14842) | IC50 | 1010 nM
Fc1ccc(CCCCN2CCN(c3ncc(F)cn3)CC2)cc1 | 5-hydroxytryptamine receptor 2A (Rattus norvegicus, UniProt P14842) | IC50 | 212 nM
Fc1cnc(N2CCN(CCCCc3ccc(F)c4ccccc34)CC2)nc1 | 5-hydroxytryptamine receptor 2A (Rattus norvegicus, UniProt P14842) | IC50 | 590 nM
O=S(=O)(NC(CCCN1CCN(c2ncc(F)cn2)CC1)c1ccc(F)cc1)c1ccc(F)cc1 (stereo unspecified) | 5-hydroxytryptamine receptor 2A (Rattus norvegicus, UniProt P14842) | IC50 | 3400 nM
O=C(NC(CCCN1CCN(c2ncc(F)cn2)CC1)c1ccc(F)cc1)c1ccc(F)cc1 (stereo unspecified) | 5-hydroxytryptamine receptor 2A (Rattus norvegicus, UniProt P14842) | IC50 | 468 nM
O=C(NC(CCCN1CCN(c2ncc(F)cn2)CC1)C1CCCCC1)c1ccc(F)cc1 (stereo unspecified) | 5-hydroxytryptamine receptor 2A (Rattus norvegicus, UniProt P14842) | IC50 | 760 nM
Fc1ccc(OCCCN2CCN(c3ncc(F)cn3)CC2)cc1 | 5-hydroxytryptamine receptor 2A (Rattus norvegicus, UniProt P14842) | IC50 | 141 nM
CC(=O)OC(CCCN1CCN(c2ncc(F)cn2)CC1)c1ccc(F)cc1 (stereo unspecified) | 5-hydroxytryptamine receptor 2A (Rattus norvegicus, UniProt P14842) | IC50 | 504 nM

###

Target: UniProt:P19327
Sequence (P19327 whole entry): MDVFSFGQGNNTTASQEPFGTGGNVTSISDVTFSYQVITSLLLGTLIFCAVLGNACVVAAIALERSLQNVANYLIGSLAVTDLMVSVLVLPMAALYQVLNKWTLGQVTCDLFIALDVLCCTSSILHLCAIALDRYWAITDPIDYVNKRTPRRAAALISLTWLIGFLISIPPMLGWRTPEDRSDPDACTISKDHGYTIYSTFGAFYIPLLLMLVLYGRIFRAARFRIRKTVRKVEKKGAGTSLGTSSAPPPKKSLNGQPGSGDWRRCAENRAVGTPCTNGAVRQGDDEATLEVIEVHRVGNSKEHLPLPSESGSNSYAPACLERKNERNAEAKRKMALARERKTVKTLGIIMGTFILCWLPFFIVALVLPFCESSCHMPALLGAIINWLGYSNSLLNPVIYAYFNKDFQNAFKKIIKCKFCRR
Criterion: IC50 strictly less than 300 nM. Met: fulfilled. Not met: not fulfilled.

Compound | Assigned category
Fc1ccc(CCCCN2CCN(c3ncc(F)cn3)CC2)cc1 | fulfilled
O=C(NC(CCCN1CCN(c2ncc(F)cn2)CC1)c1ccc(F)cc1)c1ccc(F)cc1 (stereo unspecified) | fulfilled
CC(=O)OC(CCCN1CCN(c2ncc(F)cn2)CC1)c1ccc(F)cc1 (stereo unspecified) | fulfilled
OC(CCCN1CCN(c2ncc(F)cn2)CC1)c1ccc(F)c2ccccc12 (stereo unspecified) | not fulfilled
Fc1cnc(N2CCN(CCCCc3ccc(F)c4ccccc34)CC2)nc1 | not fulfilled
Fc1cnc(N2CCN(CCCCC3CCCCC3)CC2)nc1 | not fulfilled
Fc1ccc(SCCCN2CCN(c3ncc(F)cn3)CC2)cc1 | fulfilled
NC(CCCN1CCN(c2ncc(F)cn2)CC1)C1CCCCC1 (stereo unspecified) | fulfilled
O=C(OC(CCCN1CCN(c2ncc(F)cn2)CC1)c1ccc(F)cc1)c1ccccc1 (stereo unspecified) | not fulfilled
O=S(=O)(CCCN1CCN(c2ncc(F)cn2)CC1)c1ccc(F)cc1 | not fulfilled
NC(CCCN1CCN(c2ncc(F)cn2)CC1)c1ccc(F)c2ccccc12 (stereo unspecified) | not fulfilled
O=S(=O)(NC(CCCN1CCN(c2ncc(F)cn2)CC1)c1ccc(F)cc1)c1ccc(F)cc1 (stereo unspecified) | not fulfilled
Fc1ccc(OCCCN2CCN(c3ncc(F)cn3)CC2)cc1 | fulfilled
CC(=O)NC(CCCN1CCN(c2ncc(F)cn2)CC1)c1ccc(F)cc1 (stereo unspecified) | fulfilled
OC(CCCN1CCN(c2ncc(F)cn2)CC1)(c1ccc(F)cc1)C1CCCCC1 (stereo unspecified) | fulfilled
OC(CCCN1CCN(c2ncc(F)cn2)CC1)C1CCCCC1 (stereo unspecified) | fulfilled
